# TARGET: TIP48/TIP49 complex (Homo sapiens, UniProt Q9Y230+Q9Y265)
# Sequence (Q9Y230 whole entry): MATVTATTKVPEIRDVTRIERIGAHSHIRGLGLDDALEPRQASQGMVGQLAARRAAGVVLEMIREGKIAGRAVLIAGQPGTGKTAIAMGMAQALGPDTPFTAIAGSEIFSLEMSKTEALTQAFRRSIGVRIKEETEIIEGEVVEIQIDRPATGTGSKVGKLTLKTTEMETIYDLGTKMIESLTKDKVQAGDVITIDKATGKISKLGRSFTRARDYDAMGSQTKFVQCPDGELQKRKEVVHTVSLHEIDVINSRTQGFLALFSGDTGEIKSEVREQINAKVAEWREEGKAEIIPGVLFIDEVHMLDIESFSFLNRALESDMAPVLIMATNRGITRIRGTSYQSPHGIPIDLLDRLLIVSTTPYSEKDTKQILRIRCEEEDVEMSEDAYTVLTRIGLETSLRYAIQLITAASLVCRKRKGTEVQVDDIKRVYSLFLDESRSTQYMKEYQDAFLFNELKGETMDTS
# Sequence (Q9Y265 whole entry): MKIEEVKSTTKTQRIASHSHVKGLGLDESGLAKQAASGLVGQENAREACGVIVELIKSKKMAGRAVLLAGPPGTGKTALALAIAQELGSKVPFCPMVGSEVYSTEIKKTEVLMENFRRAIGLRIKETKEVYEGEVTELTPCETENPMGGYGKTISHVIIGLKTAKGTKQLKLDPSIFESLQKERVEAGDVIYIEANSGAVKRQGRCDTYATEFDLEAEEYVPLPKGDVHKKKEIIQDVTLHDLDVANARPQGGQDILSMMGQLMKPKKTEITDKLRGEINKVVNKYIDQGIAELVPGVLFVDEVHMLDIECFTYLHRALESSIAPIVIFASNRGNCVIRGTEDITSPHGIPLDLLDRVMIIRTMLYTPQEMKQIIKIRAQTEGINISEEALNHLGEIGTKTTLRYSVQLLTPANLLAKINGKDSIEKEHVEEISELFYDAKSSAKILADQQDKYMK
# EXPERIMENTAL_DETAILS: ATPase assay of TIP48/TIP49 complex (ADP-Glo)
# CONDITION_DETAILS: concentration at which the ATPase activity was inhibited by 50%
# Description: The ATPase activity of the TIP48/TIP49 complex can be measured by use of an ATPase assay described below in Test Examples 1 and 2. […] Alternatively, the ATPase activity of the TIP48/TIP49 complex can be measured by a method described in, for example, J. Mol. Biol. 366, 172-179 (2007). […] The ATPase inhibitory activity was calculated according to the expression given below. […]
ENDPOINT_LABEL: pIC50
Keep it numeric: pIC50 is minus log10 of the concentration in mol/L.

Look over these answered cases.
# COMPOUND, pIC50
measured = [
    ("CCOc1ncc(Cl)cc1C(=O)NCC(C)(C)CC(=O)Nc1c(C)n(C)n(-c2ccccc2)c1=O", 7.23),
    ("CCOc1cc(F)c(Cl)cc1C(=O)NCC(C)(C)CC(=O)Nc1c(C[C@@H](C)N(C)C)n(C)n(-c2ccccc2)c1=O", 7.16),
    ("CCOc1ccc(Cl)cc1C(=O)NCC(C)(C)CC(=O)Nc1c(C)n(C(C)C)n(-c2ccccn2)c1=O", 7.32),
]

Dear colleague, I am looking for the recorded pIC50 of the following compound: CCOc1ccc(Cl)cc1C(=O)NCC(C)(C)CC(=O)Nc1c(CCC(=O)N2CCCC2)n(C)n(-c2ccccc2)c1=O
7.09

Okay, and CCOc1ccc(Cl)cc1C(=O)NCC(C)(C)CC(=O)Nc1c(C)n(C)n(-c2ccccc2)c1=O ?
7.60

Okay, and CCc1c(NC(=O)CC(C)(C)CNC(=O)c2cc(Cl)ccc2OCOC)c(=O)n(-c2ccccc2)n1C ?
7.26

Okay, and Cc1c(NC(=O)CC(C)(C)CNC(=O)c2cc(Cl)ccc2OC(C)C)c(=O)n(-c2ccccc2)n1C ?
7.06
